tested on: Acinetobacter baumannii strains; experiment: Antibiotic susceptibility test (CLSI disk diffusion test method, read per CLSI 2016); format: cell-based; details: host strain YMC17/02/B4520; also: key: ‘S’ means susceptible; ‘I’ means intermediate; ‘R’ means resistant
PROPERTY_MEASURED: susceptibility category (S/I/R)

In the examples that follow, each entry is paired with its recorded susceptibility category (S/I/R).
INSERT INTO assay_data (mol_smiles, property_measured, result) VALUES
  ('NCC[C@H](O)C(=O)N[C@@H]1C[C@H](N)[C@@H](O[C@H]2O[C@H](CN)[C@@H](O)[C@H](O)[C@H]2O)[C@H](O)[C@H]1O[C@H]1O[C@H](CO)[C@@H](O)[C@H](N)[C@H]1O', 'susceptibility category (S/I/R)', 'R'),
  ('CO/N=C(\C(=O)N[C@@H]1C(=O)N2C(C(=O)O)=C(COC(C)=O)CS[C@H]12)c1csc(N)n1', 'susceptibility category (S/I/R)', 'R'),
  ('C[C@@H](O)[C@H]1C(=O)N2C(C(=O)O)=C(S[C@@H]3CN[C@H](C(=O)N(C)C)C3)[C@H](C)[C@H]12', 'susceptibility category (S/I/R)', 'R'),
  ('C[C@H]1COc2c(N3CCN(C)CC3)c(F)cc3c(=O)c(C(=O)O)cn1c23', 'susceptibility category (S/I/R)', 'R'),
  ('CC(C)(O/N=C(\C(=O)N[C@@H]1C(=O)N2C(C(=O)[O-])=C(C[n+]3ccccc3)CS[C@H]12)c1csc(N)n1)C(=O)O', 'susceptibility category (S/I/R)', 'R'),
  ('C[C@@H](O)[C@H]1C(=O)N2C(C(=O)O)=C(SCCN=CN)C[C@H]12', 'susceptibility category (S/I/R)', 'R');

Input line: Return reported susceptibility category (S/I/R). Input molecule: CN(C)c1cc(NC(=O)CNC(C)(C)C)c(O)c2c1C[C@H]1C[C@H]3[C@H](N(C)C)C(O)=C(C(N)=O)C(=O)[C@@]3(O)C(O)=C1C2=O
Output line: S

Input line: Return reported susceptibility category (S/I/R). Input molecule: CN(C)c1ccc(O)c2c1C[C@H]1C[C@H]3[C@H](N(C)C)C(O)=C(C(N)=O)C(=O)[C@@]3(O)C(O)=C1C2=O
Output line: S

Input line: Return reported susceptibility category (S/I/R). Input molecule: CCN1CCN(C(=O)N[C@@H](C(=O)N[C@@H]2C(=O)N3[C@@H]2SC(C)(C)[C@@H]3C(=O)O)c2ccccc2)C(=O)C1=O
Output line: R

Source listed as patent US20240000872A1.
